Reference for the values: patent US20080004266A1

Test system: Karpas-299 cells (NPM-ALK)
Test: Cell survival in Karpas-299 cells (Cell Counting Kit-8)
Format: cell-based, human
Conditions: Homo sapiens, 72 hours
RESULT TYPE: IC50 (nM)
Give the value, in units of nM, as a plain number.

Query :: Bench note: what IC50 did `CC(C)c1cc(-c2nnc(O)n2-c2ccc3c(ccn3C)c2)c(O)cc1O` show?
Result :: 10

---

Test system: NCI-H1975 cells (EGFR T790M and L858R)
Assay: Cell survival in NCI-H1975 cells (Cell Counting Kit-8)
Type: cell-based, human
Details: Homo sapiens, 72 hours
RESULT TYPE: IC50 (nM)
Give the value, in units of nM, as a plain number.

Query :: Bench note: what IC50 did `CC(C)c1cc(-c2nnc(O)n2-c2ccc3c(ccn3C)c2)c(O)cc1O` show?
Result :: 16

---

Tested on: A375 cells (B-raf V600E)
Test: Cell survival in A375 melanoma cells (Cell Counting Kit-8)
Type: cell-based, human
Conditions: Homo sapiens, A-375, 72 hours
RESULT TYPE: pIC50
The quantity pIC50 is defined as the negative base-10 logarithm of the molar concentration.

Query :: Bench note: what pIC50 did CC(C)c1cc(-c2nnc(O)n2-c2ccc3c(ccn3C)c2)c(O)cc1O [Compound 226] show?
Result :: 8.40
